Entry source: patent US7208517B1

- study system: ETB receptors of porcine cerebellar tissues (pET-B) (Sus scrofa)
- Construct: porcine cerebellar tissues (known to contain ETB receptors); from tissue; host or cells: porcine cerebellum (membranes)
- Sequence (P35463 27-443): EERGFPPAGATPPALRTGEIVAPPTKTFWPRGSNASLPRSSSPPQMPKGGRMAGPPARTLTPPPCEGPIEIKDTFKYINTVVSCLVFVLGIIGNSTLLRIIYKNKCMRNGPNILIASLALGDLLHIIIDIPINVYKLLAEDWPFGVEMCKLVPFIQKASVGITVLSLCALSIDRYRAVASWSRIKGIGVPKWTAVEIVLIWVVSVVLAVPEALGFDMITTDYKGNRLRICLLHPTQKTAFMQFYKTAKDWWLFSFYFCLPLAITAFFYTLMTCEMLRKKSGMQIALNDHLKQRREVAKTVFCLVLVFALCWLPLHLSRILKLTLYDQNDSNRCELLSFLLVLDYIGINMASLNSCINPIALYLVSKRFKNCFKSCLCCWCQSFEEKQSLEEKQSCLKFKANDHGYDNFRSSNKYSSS
- run description: ETA/ETB selectivity: (125I)ET-3 competition binding, ETB assay in porcine cerebellum membranes (pET-B)
- test parameters: porcine cerebellum membranes; 0.1 nM (125I)ET-3; read-out: pET-B IC50
Overview of recorded IC50 for various compounds

Below: 2 compounds and their reported IC50.
[[record]]
compound = "CCCCN(CCCC)C(=O)CN1CC(c2ccc3c(c2)OCO3)C(C(=O)O)C1CCN1CCCC1=O (stereo not drawn)"
endpoint_result = "> 80 µM"

[[record]]
compound = "CCCCN(CCCC)C(=O)CN1CC(c2ccc3c(c2)OCO3)C(C(=O)O)C1CCC1OCCO1 (stereo not drawn)"
endpoint_result = "> 100 µM"


With those in mind, consider the next compound.
Lab note: compound CCCCN(CCCC)C(=O)CN1C[C@H](c2ccc3c(c2)CCO3)[C@@H](C(=O)O)[C@@H]1CC(C)(C)CCC tested on ETB receptors of porcine cerebellar tissues (pET-B) (Sus scrofa); recorded IC50 was > 62 µM
